Molecular target: TDP-43 (Homo sapiens, UniProt Q13148 1-414)
Sequence (Q13148 whole entry): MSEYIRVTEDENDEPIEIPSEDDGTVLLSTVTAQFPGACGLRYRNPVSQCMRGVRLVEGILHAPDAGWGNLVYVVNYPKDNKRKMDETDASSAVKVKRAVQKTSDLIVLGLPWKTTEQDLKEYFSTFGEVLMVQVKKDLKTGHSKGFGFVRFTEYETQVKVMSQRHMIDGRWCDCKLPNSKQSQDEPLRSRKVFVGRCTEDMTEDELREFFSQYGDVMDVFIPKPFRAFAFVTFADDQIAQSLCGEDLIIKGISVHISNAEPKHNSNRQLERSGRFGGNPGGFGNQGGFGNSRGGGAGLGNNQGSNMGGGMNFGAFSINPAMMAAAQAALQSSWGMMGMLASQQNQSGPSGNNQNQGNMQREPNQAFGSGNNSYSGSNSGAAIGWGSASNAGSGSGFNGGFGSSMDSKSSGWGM
Assay: RNA Bind-n-Seq with designed 260-mer pool; 25 mM Tris-HCl, 150 mM KCl, 3 mM MgCl2, BSA (printed 500 mg/mL), 20 units/mL SUPERase IN; pH not stated; 500 nM RNA pool, 1 h, 4 C; TDP-43 5, 50, 500 nM; high values mean tight binding
Settings: protein: recombinant; tags: SBP (GST cleaved off with PreScission; pGEX-GST-SBP)
Over roughly 9,900 sequences, “r (bound/input frequency ratio)” has its median near 0.7; the highest 2% begin near 6.5. Many of the other results were omitted from the sample, so the highest values are more common in it than they were.
Measurement Type: binding signal

Problem: # lookup: binding signal of ENSMUSG00000058297.242|Spock2|105:111;209:217;228:260 (ssRNA) RNA: GGGAGUUCUACAGUCCGACGAUCGCUUCGAUAUCCGCAUGCUAAGGGGACCACACUGAGCAGCUAGGCCCUGAUGCCAUGCCUCAGCACGCCCUCAGACCUCCAGGCCGGGUGGAAGGGGCUUUUACCCAGAUGUCCUGUGGGGUUUACACACACUAUUGCUCCCCACUUCCCCCUCUCAAAGGAAAUUUCCUUGAUAUAUUUGAUGAAGAAUUCCUUACCUGGGCCUCUGAUACCCUUUGGUACGCGUACCACACACACGCGCGUAUACCACACACACACACACACACACACACACACACACCUCUUGCGGUCGCACUAGUGUGGAAUUCUCGGGUGUCAAGG
Result: 4.83 R (bound/input frequency ratio)
